Ref: patent US20250325687A1

Give pEC50 for every item shown.
# Study System: hTLR8 (human Toll-like receptor 8) (Homo sapiens)
# Sequence (Q9NR97 27-1041): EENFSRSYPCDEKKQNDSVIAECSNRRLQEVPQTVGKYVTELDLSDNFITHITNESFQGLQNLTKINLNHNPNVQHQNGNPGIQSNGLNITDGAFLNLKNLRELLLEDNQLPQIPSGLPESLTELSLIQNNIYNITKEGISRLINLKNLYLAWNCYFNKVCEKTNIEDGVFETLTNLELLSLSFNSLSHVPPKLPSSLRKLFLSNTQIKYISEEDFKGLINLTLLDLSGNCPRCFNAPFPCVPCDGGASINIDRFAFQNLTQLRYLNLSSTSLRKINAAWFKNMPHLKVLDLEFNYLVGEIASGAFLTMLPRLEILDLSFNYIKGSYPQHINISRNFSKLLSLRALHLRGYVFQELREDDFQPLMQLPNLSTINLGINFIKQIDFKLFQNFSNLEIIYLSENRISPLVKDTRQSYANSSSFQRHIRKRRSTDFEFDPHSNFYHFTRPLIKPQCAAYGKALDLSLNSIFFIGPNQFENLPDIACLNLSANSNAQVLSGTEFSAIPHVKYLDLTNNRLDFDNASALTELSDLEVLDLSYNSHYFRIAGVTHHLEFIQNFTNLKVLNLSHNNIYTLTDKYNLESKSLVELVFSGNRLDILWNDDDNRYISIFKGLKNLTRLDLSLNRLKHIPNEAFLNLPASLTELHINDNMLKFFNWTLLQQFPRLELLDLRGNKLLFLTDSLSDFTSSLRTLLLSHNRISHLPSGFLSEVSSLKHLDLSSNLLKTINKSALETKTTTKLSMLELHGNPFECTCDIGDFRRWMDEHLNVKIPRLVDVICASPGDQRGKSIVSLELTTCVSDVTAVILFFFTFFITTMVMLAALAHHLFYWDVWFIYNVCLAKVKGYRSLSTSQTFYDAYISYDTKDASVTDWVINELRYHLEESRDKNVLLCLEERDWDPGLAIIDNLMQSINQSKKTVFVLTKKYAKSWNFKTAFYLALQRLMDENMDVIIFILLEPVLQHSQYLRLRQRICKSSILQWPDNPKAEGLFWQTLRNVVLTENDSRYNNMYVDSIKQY
# Experiment Notes: hTLR8 cell assay (HEK-Blue hTLR8 reporter cells)
# Particulars: 24 hours, OD 650 nm
pEC50: −log10 of the molar value.

Determine from records and report pEC50 for CCCC(C)c1nc2c(N)nc3cc(Cc4ccc(CCN)cc4)ccc3c2n1CC(C)(C)OC (centres unmarked) 4.70 to 5.30

Determine from records and report pEC50 for "CCC[C@@H](C)c1nc2c(N)nc3cc(Cc4ccc(CCN)cc4)ccc3c2n1CC(C)(C)O" < 4.70

Determine from records and report pEC50 for "CCOCc1nc2c(N)nc3cc(Cc4ccc(F)c(CN)c4)ccc3c2n1CC(C)(C)O" > 5.30

Determine from records and report pEC50 for "CCOCc1nc2c(N)nc3cc(Cc4ccc(CCN)cc4)ccc3c2n1C[C@@H]1[C@@H](CO)C1(F)F" 4.70 to 5.30

Determine from records and report pEC50 for "CCCCc1nc2c(N)nc3cc(Cc4cccc(CNC(=O)CN)c4)ccc3c2n1CC(C)(C)O" > 5.30

Determine from records and report pEC50 for "CC(C)(O)Cn1c(CCCC(F)(F)F)nc2c(N)nc3cc(Cc4cccc(CN)c4)ccc3c21" > 5.30

Determine from records and report pEC50 for CCCCc1nc2c(N)nc3cc(Cc4ccc5c(c4)C(N)CC5)ccc3c2n1CC(C)(C)O (centres unmarked) > 5.30

Determine from records and report pEC50 for "CCOCc1nc2c(N)nc3cc(Cc4cccc(CNC(=O)CN)c4)ccc3c2n1CC(C)(C)O" > 5.30
